- assay: Water solubility
- Format: physicochemical
- assay context: 25 °C
observable: solubility

[ask] Data request, read-out solubility, for O=C(NN1CCCCC1)c1nn(-c2ccc(Cl)cc2Cl)c2c1CCC/C2=C\c1ccc(F)cc1
[reply] ≤ 0.2 ng/mL
